meta.source: paper PMC8481799

Overview of recorded IC50 for various molecules
Tested on: Candida albicans biofilms on the maturation phase
protocol-description: Anti-maturation test (XTT), compounds added after 2 h adherence
Assay type: cell-based, Candida albicans ATCC 28367
reported-conditions: Candida albicans; 24 h of treatment; read-out: Anti-maturation activity MMIC50

Sample answers from the record:
> print(dat)
                                   molecule                              study.target   meas.value
1  COc1cc(C)c2c(c1C=O)Oc1c(c(C)c(O)c3c1C(O)OC3=O)OC2=O (stereo not shown) [Compound 8, stictic acid]  Candida albicans biofilms on the maturation phase    200 µg/mL
2  Cc1cc(O)c(C=O)c2c1C(=O)Oc1c(C)c(O)c3c(c1O2)C(O)OC3=O (stereo not shown) [Compound 6, norstictic acid]  Candida albicans biofilms on the maturation phase  > 200 µg/mL

Which IC50 value belongs to COc1cc(C)c(C(=O)Oc2cc(C)c(C(=O)O)c(O)c2)c(O)c1 [Compound 1, Evernic acid] ?
100 µg/mL

Look up IC50: CCCCCC(=O)Cc1cc(O)cc2c1C(=O)Oc1cc(O)c(C(=O)O)c(CCCCC)c1O2 [Compound 9, physodic acid]
> 200 µg/mL

If you can, please state the reported IC50 value of COC(=O)c1c(C)cc(OC(=O)c2c(C)cc(O)c(C=O)c2O)c(C)c1O [Compound 4, atranorin] .
> 200 µg/mL

Fill blank: measured IC50 of the molecule Cc1cc(OC(=O)c2c(C)cc(OC(=O)c3c(C)cc(O)cc3O)cc2O)cc(O)c1C(=O)O [Compound 5, gyrophoric acid] is ____.
> 200 µg/mL

What IC50 value was documented for this molecule, CCCCCC(=O)Cc1cc(O)c(O)c2c1C(=O)Oc1cc(O)c(C(=O)O)c(CCCCC)c1O2 [Compound 10, 3-hydroxyphysodic acid] ?
> 200 µg/mL

* * *

Tested on: Candida albicans preformed 24-h-old biofilm
protocol-description: Anti-biofilm test (XTT) on preformed 24-h-old biofilm
Assay type: cell-based, Candida albicans ATCC 28367
reported-conditions: Candida albicans, 24 h, 24 h of treatment, 24-h-old biofilm; read-out: Anti-biofilm activity MBIC50
property-measured: IC50

The cases that follow already have their IC50 on record.
> print(dat)
                                   molecule   meas.value
1  COc1cc(C)c(C(=O)Oc2cc(C)c(C(=O)O)c(O)c2)c(O)c1 [Compound 1, Evernic acid]    200 µg/mL
2  COc1cc(C)c(C(=O)Oc2c(C)c(C(=O)O)c(O)c(C=O)c2O)c(O)c1C(=O)O [Compound 3, thamnolic acid]  > 200 µg/mL

Next up:
Which IC50 value is on record for COc1cc(C)c2c(c1C=O)Oc1c(c(C)c(O)c3c1C(O)OC3=O)OC2=O (stereo not drawn) [Compound 8, stictic acid] ?
> 200 µg/mL

* * *

Test system: red blood cells
protocol-description: Hemolysis test
Assay type: cell-based
reported-conditions: at 100 µg/ml, 1 h
Protocol: Then, 480 µl of each dilution was added to 20 µl of healthy red blood cells (Poitiers University Hospital, Hematology Department) in microtubes (final hematocrit = 4%). Some microtubes were reserved for controls: untreated red blood cells (negative control), cells treated with sterile distilled water (positive control = 100% hemolysis), and cells treated with 1% DMSO. […]
property-measured: Hemolytic activity (%)
Write it as a number; the unit % goes unstated.

// worked examples, Hemolytic activity (%) included
> print(dat)
                           molecular.string       property.measured  unit.label  meas.value
1  COc1cc(C)c(C(=O)Oc2cc(C)c(C(=O)O)c(O)c2C)c(O)c1C(=O)O  Hemolytic activity (%)           %         0.4
2  COC(=O)c1c(C)cc(OC(=O)c2c(C)cc(O)c(C=O)c2O)c(C)c1O  Hemolytic activity (%)           %           0
3  COc1cc(C)c(C(=O)Oc2c(C)c(C(=O)O)c(O)c(C=O)c2O)c(O)c1C(=O)O  Hemolytic activity (%)           %         4.0

What does the record list as Hemolytic activity (%) for Cc1cc(OC(=O)c2c(C)cc(OC(=O)c3c(C)cc(O)cc3O)cc2O)cc(O)c1C(=O)O ?
0.5

Which Hemolytic activity (%) reading was recorded for the molecule COc1cc(C)c(C(=O)Oc2cc(C)c(C(=O)O)c(O)c2)c(O)c1 ?
0
